// cross-study collection: pIC50 for Platelet-derived growth factor receptor beta (Homo sapiens, UniProt P09619)
pIC50: −log10 of the molar value.

* C[C@H](Nc1cnc2cnn(C)c2n1)c1cccc(NC(=O)c2ccc3ccn(C)c3c2)c1 | > 6.52
* O=C(Nc1cccc(Oc2ccnc(-c3nnco3)c2)c1)c1ccc(Oc2ccccc2)cc1 | < 5.00
* O=C(Nc1ccc(C#Cc2ccc3nccn3n2)cc1)Nc1ccc(Cl)c(C(F)(F)F)c1 | 7.37
* CCn1cc2ncc(N[C@@H](C)c3cccc(NC(=O)c4ccc(N5CCN(C(=O)OC(C)(C)C)CC5)nc4)c3)nc2n1 | 6.00 to 6.52

Sure, the documented pIC50 for CNc1ccc(C(=O)Nc2cccc([C@H](C)Nc3cnc4cnn(C)c4n3)c2)cn1 is 6.00 to 6.52

Briefly, pIC50 measured for CCn1cc2ncc(N[C@@H](C)c3cccc(NC(=O)c4ccc(CN5CCC6(COC6)C5)c(C)c4)c3)nc2n1 : > 6.52

// field: pIC50; key: Cc1nnc(-c2cc(Oc3cccc(NC(=O)Nc4ccc(Cl)c(C(F)(F)F)c4)c3)ncn2)o1 ; value = ≥ 5.00

Record CCn1cc2ncc(N[C@@H](C)c3cccc(NC(=O)c4ccc5c(c4)CN(C)C5)c3)nc2n1 . Reported pIC50: ≤ 6.00

###

Literature compilation of pIC50 measurements on Platelet-derived growth factor receptor beta (Homo sapiens, UniProt P09619).
pIC50: −log10 of the molar value.

For Cc1ccc(C(=O)N[C@H]2CCCC[C@@H]2O)cc1NCc1cnc2ccccc2c1 on Platelet-derived growth factor receptor beta (Homo sapiens, UniProt P09619), measured pIC50 was 6.70

// molecule C[C@@H](NC(=O)C1(C(=O)Nc2ccc(Oc3ccnc(-c4cnn(C)c4)c3)c(F)c2)CC1)c1ccccc1 , assay Platelet-derived growth factor receptor beta (Homo sapiens, UniProt P09619), pIC50 value: > 5.00

Record CCn1cc2ncc(N[C@@H](C)c3cccc(NC(=O)c4cnc(N5CCN(C)CC5)c(C)c4)c3)nc2n1 / Platelet-derived growth factor receptor beta (Homo sapiens, UniProt P09619), pIC50 recorded as > 6.52

###

Listing of IC50 toward Platelet-derived growth factor receptor beta (Homo sapiens, UniProt P09619), each taken from a published source.
Form entry: value (nM) — number only.

• Cc1ccc(C(=O)N[C@H]2CCCC[C@@H]2O)cc1NCc1ccc(NC(=O)N2CCOCC2)nc1 = 63

# value of IC50, Platelet-derived growth factor receptor beta (Homo sapiens, UniProt P09619), item Cc1cc(-c2cc(O)ccc2Cl)cc2nnc(Nc3ccc(S(=O)(=O)NCCN4CCCC4)cc3)nc12 = 1.7

The reported Platelet-derived growth factor receptor beta (Homo sapiens, UniProt P09619) IC50 of COC(=O)CCCCS(=O)(CCCCC(=O)OC)=NC(=O)c1cnc(N)c(C#Cc2cccc(C(=O)Nc3ccc(F)c(Cl)c3)c2)c1 is 68

###

Record: compiled IC50 on Platelet-derived growth factor receptor beta (Homo sapiens, UniProt P09619) from multiple reports.
Kindly apply the following: Satisfied if IC50 is less than 7 nM, Not satisfied in every other case.

# count of solved cases: 10
- COC(=O)c1cc2nccc(Oc3cccc(NC(=O)c4occc4C)c3)c2s1: Not satisfied
- CCn1cc2ncc(N[C@@H](C)c3cccc(NC(=O)c4cnc(CN5CC6(COC6)C5)c(F)c4)c3)nc2n1: Not satisfied
- CCN(CC)CCNC(=O)c1c(C)[nH]c(/C=C2\C(=O)Nc3ccc(S(=O)(=O)N(C)C)cc32)c1C: Not satisfied
- Cc1[nH]c(/C=C2\C(=O)Nc3ccc(S(=O)(=O)N(C)C)cc32)c(C)c1C(=O)NCCN1CCCC1: Not satisfied
- Cc1ccc(C(=O)N[C@H]2CCCC[C@@H]2O)cc1NCc1cnc(Nc2ccccn2)nc1: Not satisfied
- Cc1ccc(Cl)cc1-c1cc2nnc(Nc3ccc(C(=O)N4CCN(C)CC4)cc3)nc2cc1C: Satisfied
- Cc1cc2nc(Nc3ccc(OCCN4CCCC4)cc3)nnc2cc1-c1cccc(O)c1: Not satisfied
- Cc1ccc(C(=O)N[C@H]2CCCC[C@@H]2O)cc1NC(=O)c1cnc(NCCC2CC2)s1: Satisfied
- C[C@H](Nc1cnc2cnn(C)c2n1)c1cccc(NC(=O)c2cnccc2F)c1: Not satisfied
- CCN(CC)CCNC(=O)c1ccc(/C=C2\C(=O)Nc3cc(-c4ccccc4)ccc32)[nH]1: Not satisfied

Query compound follows.
Data request: Given the entry Cc1c(F)cc(C(=O)N[C@H]2CCCC[C@@H]2O)cc1Nc1cccc(-c2cccnc2)n1 , would its reported IC50 be below 7 nM?
Data returned: Not satisfied
